Source: ChEMBL document CHEMBL4513216

Recorded measurements of cytotoxicity at 10 µM, one per entry
experimentalProtocol: Toxicity liver stage against HepG2, at 10uM
Format: cell-based
Design: test concentration 10 uM, cell line HepG2-A16-CD81EGFP
reportedConditions: human, HepG2-A16-CD81EGFP cells; read-out: INHIBITION
Answer with a number only, understood to be in %.

molecule | val
O=C(CC1CC1)N1CCC2(CC1)CN(c1ccsc1)C(=O)CO2 | -73.1

Q. # query: cytotoxicity at 10 µM of entry "Cc1[nH]ccc1C(=O)N1CCC2(CC1)c1nc[nH]c1CCN2S(C)(=O)=O"
A. 6.63

Q. Moving on to "COC(=O)c1cccc(C(=O)N(CCC#N)CC(C)(C)C)c1"
A. 7.72

Q. Now give it for CCC1(CC)CC(=O)N(CC(O)c2ccc(F)cc2)C1=O (centres undefined) too.
A. -0.438

Q. Now try CC(C)(CN1CCC(Cc2cccc(C(=O)O)c2)C1)N1CCOCC1 (centres undefined) .
A. 3.98

====

Here, each record is paired with measured cytotoxicity at 10 µM data.
experimentalProtocol: Toxicity liver stage against HepG2, at 10uM
Assay type: cell-based
Design: test concentration 10 uM, cell line HepG2-A16-CD81EGFP
reportedConditions: human, HepG2-A16-CD81EGFP cells; read-out: INHIBITION
Write it as a number; the unit % goes unstated.

Example compounds with recorded cytotoxicity at 10 µM:
compound | units | cytotoxicity at 10 µM
O=C(NCC1CCCO1)c1ccc(S(=O)(=O)NCCc2cn[nH]c2)cc1 (stereo unspecified) | % | 5.5
Cc1nc(C)c(C(=O)N2Cc3ccccc3OCC2Cn2ccnc2)o1 (stereo unspecified) | % | 7.92
Cc1cc(C)c2nc(CNC3CCNC3=O)cc(O)c2c1 (stereo unspecified) | % | 5.92
Fc1ccc(N2CCC3(CC2)CC(OCc2cccnc2)CO3)cc1 (stereo unspecified) | % | 9.81
CCN1C(=O)CCC12CCCN(Cc1nccs1)CC2 (stereo unspecified) | % | -0.413
Cc1nc(C(=O)N2CCCCC2)nn1-c1ccccc1Cl | % | -6.46

Q. Reported cytotoxicity at 10 µM, compound "Cc1cc(C)cc(NC(=O)Nc2c(O)c3ccccc3oc2=O)c1" : ____
A. 9.24

Q. Also O=C(CO)N1CCCC(c2cc(C(F)(F)F)[nH]n2)C1 (stereo unspecified) , if possible.
A. -5.12

Q. Same question, COc1ccc(C2c3c(n[nH]c3C)N=C3COC(=O)C32)cc1OC (stereo unspecified) this time
A. 7.98

Q. // same read-out, input: CCN1C(=O)CCC12CCC(NC(=O)c1ccncc1F)CC2 (stereo unspecified)
A. 0.758

Q. Here is the next compound: CN1CCC(Cc2nc(-c3cnccn3)n(C3CCS(=O)(=O)C3)n2)CC1 (stereo unspecified)
A. -2.64

====

experimentalProtocol: Toxicity liver stage against HepG2, at 10uM
Assay type: cell-based
Design: test concentration 10 uM, cell line HepG2-A16-CD81EGFP
reportedConditions: human, HepG2-A16-CD81EGFP cells; read-out: INHIBITION
Measured cytotoxicity at 10 µM by item
Respond with the bare value in %.

molecule | units | cytotoxicity at 10 µM
CN1CCN(C(=O)C2(NC(N)=O)CCCCC2)Cc2ccccc21 | % | -6.32
CNS(=O)(=O)c1ccc(CNC(=O)c2cccc(C)n2)cc1 | % | 7.17

Q. Using the record for CS(=O)(=O)CC1CCCN(C(=O)Cn2cccc(C(F)(F)F)c2=O)C1 (stereo unspecified) , report its cytotoxicity at 10 µM.
A. 4.1

Q. What do you get for "CCN(CCn1cccn1)C(=O)CN1C(=O)OC[C@@H]1c1ccccc1" ?
A. -12.1

Q. # iterate: CC1c2ncc(Cn3cncn3)n2CCN1C(=O)c1ccccn1 (stereo unspecified)
A. -0.785

Q. Cool, now "NC(=O)C1CCN(C(=O)CCSCc2ccc(Cl)c(Cl)c2)CC1"
A. -1.35

Q. // query: "CS(=O)(=O)CC(=O)N1C[C@@H]2CN(Cc3ccoc3)CCO[C@@H]2C1"
A. -69.2

Q. Same read-out for "NC(=O)c1cccc(CNC(=O)NCCOc2ccc(F)c(F)c2)c1" ?
A. 9.77

Q. Now consider CN(C)CC1CSCCCN1C(=O)Nc1ccc(C(C)(C)C)cc1 (stereo unspecified) .
A. 6.79

Q. Next up: CCOc1ccc(CC(CNC(=O)c2ccco2)C(N)=O)cc1 (stereo unspecified)
A. 8.26

Q. Now consider "CCn1ccnc1CN1CCCN(C(=O)c2ccc(C#N)cc2)CC1" .
A. -6.96
